System: mouse splenocytes
Test Protocol: Inhibition of B Cell Activation as Measured by CD69 Expression in Mouse Splenocytes
Assay type: cell-based
Particulars: Splenocyte; C57/BL6 splenocytes, 3 ug/mL goat anti-mouse IgM, 18-20 hrs, CD69+ve cells within CD19; read-out: Mouse spleenocyte IC50
IC50 less than 50 nM is Condition met; IC50 greater than or equal to 50 nM is Condition not met.

[
  {
    "Molecule": "O=C1c2c(F)cc(C3CC3)cc2OCCN1c1cccc(-c2ccnc3[nH]c(-c4ccc(CN5CCN(CC(F)(F)F)CC5)cn4)cc23)c1CO [Example I-16]",
    "Test Target": "mouse splenocytes",
    "Group Label": "Condition met"
  },
  {
    "Molecule": "O=C(CO)N1CC=C(c2cc3c(-c4cccc(N5CCOc6cc(C7CC7)cc(F)c6C5=O)c4CO)ccnc3[nH]2)CC1 [Example P-30]",
    "Test Target": "mouse splenocytes",
    "Group Label": "Condition met"
  },
  {
    "Molecule": "O=C1c2c(F)cc(C3CC3)cc2OCCN1c1cccc(-c2ccnc3[nH]c(-c4ccc(CN5CCN(C6COC6)CC5)cn4)cc23)c1CO [Example I-13]",
    "Test Target": "mouse splenocytes",
    "Group Label": "Condition met"
  },
  {
    "Molecule": "CN1CCCC(n2cc(-c3cc4c(-c5cccc(N6CCOc7cc(C8CC8)ccc7C6=O)c5CO)ncnc4[nH]3)cn2)C1 [Example D-6]",
    "Test Target": "mouse splenocytes",
    "Group Label": "Condition not met"
  },
  {
    "Molecule": "C=CC(=O)N1CCCC(n2cc(-c3cc4c(-c5cccc(N6CCOc7cc(C8CC8)ccc7C6=O)c5CO)ncnc4[nH]3)cn2)C1 (centres unmarked) [Example S-1]",
    "Test Target": "mouse splenocytes",
    "Group Label": "Condition not met"
  },
  {
    "Molecule": "CC1(O)CN(C(=O)N2CC=C(c3cc4c(-c5cccc(N6CCOc7cc(C8CC8)cc(F)c7C6=O)c5CO)ccnc4[nH]3)CC2)C1 [Example P-15]",
    "Test Target": "mouse splenocytes",
    "Group Label": "Condition met"
  },
  {
    "Molecule": "O=C(CN1CC=C(c2cc3c(-c4cccc(N5CCOc6cc(C7CC7)cc(F)c6C5=O)c4CO)ccnc3[nH]2)CC1)N1CCC1 [Example P-22]",
    "Test Target": "mouse splenocytes",
    "Group Label": "Condition not met"
  },
  {
    "Molecule": "CC(C)N1CC(n2cnc(-c3cc4c(-c5cccc(N6CCOc7cc(C8CC8)ccc7C6=O)c5CO)ccnc4[nH]3)c2)C1 [Example P-9]",
    "Test Target": "mouse splenocytes",
    "Group Label": "Condition not met"
  },
  {
    "Molecule": "NC(=O)CN1CC=C(c2cc3c(-c4cccc(N5CCOc6cc(C7CC7)cc(F)c6C5=O)c4CO)ccnc3[nH]2)CC1 [Example P-31]",
    "Test Target": "mouse splenocytes",
    "Group Label": "Condition not met"
  },
  {
    "Molecule": "CN1CCC(n2cc(-c3cc4c(-c5cccc(-n6ncc7cc(C8CC8)ccc7c6=O)c5CO)ncnc4[nH]3)cn2)CC1 [Example D-9]",
    "Test Target": "mouse splenocytes",
    "Group Label": "Condition met"
  }
]

Regarding CCN1CC=C(c2cc3c(-c4cccc(N5CCOc6cc(C7CC7)cc(F)c6C5=O)c4CO)ccnc3[nH]2)CC1 [Example R-3] , kindly confirm whether its IC50 is beneath 50 nM.
Condition not met

Regarding O=C1c2c(F)cc(C3CC3)cc2OCCN1c1cc(F)cc(-c2ccnc3[nH]c(C4=CCN(C5COC5)CC4)cc23)c1CO [Example P-16] , kindly confirm whether its IC50 is beneath 50 nM.
Condition met

Regarding N#CC1CCN(Cc2ccc(-c3cc4c(-c5cccc(N6CCOc7cc(C8CC8)ccc7C6=O)c5CO)ncnc4[nH]3)cc2)CC1 [Example B-14] , kindly confirm whether its IC50 is beneath 50 nM.
Condition not met

Values compiled from patent US9233983B2.
